Hello, the source for this data is PubChem BioAssay AID330, in case you need it.

Known T/C of a selection of compounds
System: P388 leukemia ip, CD2F1 mice, survival T/C
Experiment: NCI In Vivo Anticancer Drug Screen. Data for tumor model P388 Leukemia (intraperitoneal) in CD2F1 (CDF1) mice
Details: endpoint: median survival time; dose: 200.0 mg/kg/injection; schedule: Q01DX009 (ip); vehicle: saline; higher = longer survival
Toxic doses and inconclusive results are not listed.

{"columns": ["Compound", "Assay Value"],
 "data": [
  ["O=C(OC1CCC2(CC1)N=NC1(CCC(OC(=O)c3ccccc3)CC1)S2)c1ccccc1 (stereo not drawn)", "101 % of control"],
  ["CC(N)C(=O)NC(C(=O)O)C(C)O (stereo not drawn)", "99 % of control"],
  ["Cc1ccc([Se](=C(C(=O)c2ccccc2)C(=O)c2ccccc2)c2ccc(C)cc2)cc1", "104 % of control"],
  ["CC(=O)Nc1ccc(-c2ccc(NC(C)=O)cc2)cc1", "92 % of control"],
  ["ClC1=C(Cl)C2(Cl)C3C(c4ccc(I)cc4C4C3C3(Cl)C(Cl)=C(Cl)C4(Cl)C3(Cl)Cl)C1(Cl)C2(Cl)Cl (stereo not drawn)", "105 % of control"],
  ["CCOC(=O)N(C)C", "105 % of control"],
  ["NC(CSCCCCl)C(=O)O (stereo not drawn)", "97 % of control"],
  ["O=C(O)CN(CC(=O)O)C1CC1N(CC(=O)O)CC(=O)O (stereo not drawn)", "97 % of control"]
]}

Provide T/C, tested on P388 leukemia ip, CD2F1 mice, survival T/C, for COCCCN(Cc1cc(OC)c(OC)c(OC)c1)C(=S)Nc1cccc(SC)c1 . 99 % of control

Provide T/C, tested on P388 leukemia ip, CD2F1 mice, survival T/C, for S=P1(c2ccccc2)C=C(N2CCCC2)CC1 (stereo not drawn) . 96 % of control

Provide T/C, tested on P388 leukemia ip, CD2F1 mice, survival T/C, for O=C(O)c1cc2ccc(Cl)cc2[se]1 . 91 % of control

Provide T/C, tested on P388 leukemia ip, CD2F1 mice, survival T/C, for O=C(O)CSC(CC(=O)O)C(=O)O (stereo not drawn) . 88 % of control

Provide T/C, tested on P388 leukemia ip, CD2F1 mice, survival T/C, for CN1C(=O)C23CCCN2C(=O)C1(C)SC(=O)S3 (stereo not drawn) . 98 % of control
